Source of measurements: ChEMBL document CHEMBL1157491

So I've got a bunch of compounds here, and I need their pIC50 values.
# Protocol description: Inhibition of PDE5
API doc: respond with a numeric literal and nothing else, no unit.

Give its pIC50 value. Item: `CCC(CC)CNC(=O)c1cnc2c(cnn2CC)c1NC1CCOCC1`
4.8

What would you report for `CCn1ncc2c(NC3CCOCC3)c(C(=O)NCC3CCCCC3)cnc21` ?
5.5

What would you report for `CCn1ncc2c(NC3CCOCC3)c(C(=O)NCc3ccccc3)cnc21` ?
5.7

What would you report for `CCn1ncc2c(NC3CCOCC3)c(C(N)=O)cnc21` ?
4.8
